Listed here: items and their measured TGI.
Test system: SF-295 CNS
Experiment: NCI tumour cell line growth inhibition, 48 h

{"compound": "COc1ccc(Cc2cc(OC)c(OC)c(OC)c2)cc1", "TGI": "> 29.4 µM"}
{"compound": "O=c1oc2ccc3ccccc3c2cc1-c1nc(-c2ccc([N+](=O)[O-])cc2)n[nH]1", "TGI": "> 100 µM"}
{"compound": "COC(=O)[C@H](C)NC(=O)C1(CNC(=O)[C@H](C)NC(=O)OC(C)(C)C)Cc2ccccc2-c2ccccc2C1", "TGI": "51.6 µM"}
{"compound": "O=c1ccn(Cc2ccccc2CCl)c(=O)[nH]1", "TGI": "64.1 µM"}
{"compound": "CC(O)CC(=O)CO[C@H]1[C@H](O)[C@@H](O)[C@@H](O)[C@@H]2NC(=O)c3c(cc4c(c3O)OCO4)[C@H]21 (stereo not given in full)", "TGI": "0.314 µM"}
{"compound": "COc1ccc2nc3cc([N+](=O)[O-])ccc3c(NNc3ccc([N+](=O)[O-])cc3)c2c1", "TGI": "> 100 µM"}
{"compound": "COc1ccc2nc3cc(Cl)ccc3c(NCCNCC(O)CO)c2c1 (stereo not given)", "TGI": "12.3 µM"}
{"compound": "O=C(NC(=O)c1ccccc1)OC(c1ccccc1)C1CO1 (stereo not given)", "TGI": "> 100 µM"}
{"compound": "CCOc1cc(/C=N/c2nc3cc4sc(/N=C/c5ccc(O)c(OCC)c5)nc4cc3s2)ccc1O", "TGI": "> 100 µM"}
{"compound": "C=C[C@]1(C)CC(=O)C(C(C)C=O)[C@]12C(=O)Oc1cccc(C)c1C2=O (stereo not given in full)", "TGI": "28.9 µM"}

* * *

Test system: HCT-15 colon
Assay: NCI tumour cell line growth inhibition, 48 h
quantity_name: TGI

{"compound": "CC(C)C(=O)Nc1ccc(-c2nc(-c3cccc(OCCN4CCOCC4)c3)c(-c3ccnc(Br)c3)[nH]2)cc1", "observed": "4.67 µM"}
{"compound": "Cc1cc(O[C@@H]2O[C@@H](C)[C@H](O)[C@@H](O)[C@H]2O)c2c3c(c(O[C@@H]4O[C@@H](C)[C@H](O)[C@@H](O)[C@H]4O)cc2c1)C(=O)c1c(O)cccc1C3=O", "observed": "> 30 µM"}
{"compound": "Cc1ccc(NC(=O)CCc2nnc3s/c(=C\\c4cccc([N+](=O)[O-])c4)c(=O)n23)cc1", "observed": "> 100 µM"}
{"compound": "NC1=NCC(CN2CCCCC2)O1 (stereo not drawn)", "observed": "> 100 µM"}
{"compound": "COC(O)C(=O)c1c2c(cc3c1CCC3)CCC2 (stereo not drawn)", "observed": "> 100 µM"}
{"compound": "CCOC(=O)NC(=O)c1cn(CCCCCCCCCCC(=O)NCCCN2CCN(CCCNC(=O)CCCCCCCCCCn3cc(C(=O)NC(=O)OCC)c(=O)[nH]c3=O)CC2)c(=O)[nH]c1=O", "observed": "> 100 µM"}
{"compound": "CN(C)c1ccc(/C=C(\\C#N)c2ccccc2)cc1", "observed": "> 100 µM"}
{"compound": "Cc1ccccc1C=NC12CC3CC(CC(C3)C1)C2", "observed": "> 100 µM"}

* * *

Listed here: items and their measured TGI.
Tested on: KM20L2 colon
Experiment: NCI tumour cell line growth inhibition, 48 h

{"compound": "COc1cccc(N2C(=O)/C(=C/c3ccc(N(CCC#N)CCC#N)cc3)N=C2c2cc([N+](=O)[O-])ccc2Cl)c1", "experimental_target": "KM20L2 colon", "TGI": "> 100 µM"}
{"compound": "C1=Nc2ccccc2Cn2nncc21", "experimental_target": "KM20L2 colon", "TGI": "> 100 µM"}
{"compound": "CC(=O)NNc1nc(C)c(C(/C=C/c2ccc(Cl)cc2)=N\\N=C(N)N)s1", "experimental_target": "KM20L2 colon", "TGI": "> 100 µM"}
{"compound": "CC12CC/C(=N/NC(N)=O)C3C1CCCC32", "experimental_target": "KM20L2 colon", "TGI": "> 100 µM"}
{"compound": "CC12CCCC(C#N)(C1)OC2=O (stereo not drawn)", "experimental_target": "KM20L2 colon", "TGI": "> 100 µM"}
{"compound": "O=C(O)CCC(=O)Oc1ccc(O)c2c1CCCC2=O", "experimental_target": "KM20L2 colon", "TGI": "> 100 µM"}
{"compound": "CCC[CH2][Sn]1([CH2]CCC)[O]C(=O)CN=C(C)c2ccccc2[O]1", "experimental_target": "KM20L2 colon", "TGI": "2.97 µM"}
{"compound": "N#CC(C#N)=Cc1ccc(C(O)P(=O)(O)O)cc1 (stereo not drawn)", "experimental_target": "KM20L2 colon", "TGI": "> 100 µM"}
{"compound": "Cn1nc(-c2ccccc2)c2c(/C=C/c3ccc(Cl)cc3)onc2c1=O", "experimental_target": "KM20L2 colon", "TGI": "69.5 µM"}
{"compound": "O=C(CSc1nnc(Cc2ccccc2)o1)Nc1ccc(Cl)cc1[N+](=O)[O-]", "experimental_target": "KM20L2 colon", "TGI": "45.9 µM"}
{"compound": "Cc1cc(N(CCC#N)CCC#N)ccc1/C=C1N=C(/C=C/c2ccccc2)N(c2ccc(S(N)(=O)=O)cc2)C\\1=O", "experimental_target": "KM20L2 colon", "TGI": "> 100 µM"}
{"compound": "Cn1cnc([N+](=O)[O-])c1Sc1nc2ccccc2o1", "experimental_target": "KM20L2 colon", "TGI": "10.1 µM"}
{"compound": "CN1C(c2ccccc2)CC(C)(O)CC1c1ccccc1 (stereo not drawn)", "experimental_target": "KM20L2 colon", "TGI": "> 100 µM"}
{"compound": "O=C1N=CN=C2C=CC(Cl)=C(I)C12 (stereo not drawn)", "experimental_target": "KM20L2 colon", "TGI": "> 100 µM"}
{"compound": "CN1C(=S)CSc2ccccc21", "experimental_target": "KM20L2 colon", "TGI": "> 100 µM"}
{"compound": "O=C(CN(Cc1ccccc1)Cc1ccccc1)N1CCc2c([nH]c3ccccc23)C1c1cccnc1 (stereo not drawn)", "experimental_target": "KM20L2 colon", "TGI": "25.5 µM"}
{"compound": "C=CCOC1CC(n2cnc3c(N)ncnc32)OC1CO (stereo not drawn)", "experimental_target": "KM20L2 colon", "TGI": "> 100 µM"}
{"compound": "COC(=O)C1CC(c2ccc(Cl)cc2)=NO1 (stereo not drawn)", "experimental_target": "KM20L2 colon", "TGI": "> 100 µM"}

* * *

System: OVCAR-5 ovarian
Assay: NCI tumour cell line growth inhibition, 48 h

{"molecule": "Clc1ccc(OCc2nnc3sc(SSc4nn5c(COc6ccc(Cl)cc6)nnc5s4)nn23)cc1", "TGI": "> 100 µM"}
{"molecule": "CN1C(c2ccccc2)CC(C)(O)CC1c1ccccc1 (stereo unspecified)", "TGI": "> 100 µM"}
{"molecule": "NS(=O)(=O)c1ccc(N=Nc2c(O)[nH]c3ccc(C(=O)NCCc4cnc[nH]4)cc23)cc1", "TGI": "> 25 µM"}
{"molecule": "CC(=O)c1cc(CC2Cc3cc4c(cc3C2=O)CCC4)cc2c1CCC2 (stereo unspecified)", "TGI": "> 100 µM"}
{"molecule": "Brc1c2c(c(Br)c3nsnc13)N=S=N2", "TGI": "64.3 µM"}
{"molecule": "O=C(NC(=O)c1ccccc1)OC(c1ccccc1)C1CO1 (stereo unspecified)", "TGI": "> 100 µM"}

* * *

Test system: CCRF-CEM leukemia
Assay: NCI tumour cell line growth inhibition, 48 h
quantity_name: TGI (µM)

{"compound": "CCC(CC)c1cc(N[C@H]2CC[C@H](N)C2)n2nccc2n1", "quantity_name": "TGI", "comparison_operator": ">", "observed": 100}
{"compound": "O=C(CSc1nnc(Cc2ccccc2)o1)Nc1ccc(Cl)cc1[N+](=O)[O-]", "quantity_name": "TGI", "comparison_operator": "=", "observed": 54.4}
{"compound": "CCN(CC)CCCC(C)Nc1c2ccc(Cl)cc2nc2cc(Cl)ccc12 (stereo not given)", "quantity_name": "TGI", "comparison_operator": "=", "observed": 7.47}
{"compound": "COC(=O)CNC(=O)CNC(=O)CSc1nnc(COc2ccc(Cl)cc2)n1-c1ccccc1", "quantity_name": "TGI", "comparison_operator": "=", "observed": 57.4}
{"compound": "OCC1C2CCC3(OCCO3)C12 (stereo not given)", "quantity_name": "TGI", "comparison_operator": ">", "observed": 100}

* * *

Listed here: items and their measured TGI.
Test system: HT29 colon
Assay: NCI tumour cell line growth inhibition, 48 h

{"compound": "COc1ccc(NC(=S)C#N)cc1", "TGI": "> 100 µM"}
{"compound": "Nc1nc(=S)c2ncn(C3OC(CO)C(O)C3O)c2[nH]1 (stereo not given)", "TGI": "> 100 µM"}
{"compound": "NC(CP(=O)(O)O)C(=O)O (stereo not given)", "TGI": "> 100 µM"}
{"compound": "CCCCCCCCCC(=O)NCCc1c[nH]c2ccc(OC)cc12", "TGI": "> 100 µM"}
{"compound": "NC(=O)c1cc(I)ccc1NC(=O)/C=C/c1ccccc1Cl", "TGI": "14.5 µM"}
{"compound": "Brc1c2c(c(Br)c3nsnc13)N=S=N2", "TGI": "> 60.4 µM"}
{"compound": "CCC[CH2][Sn]1([CH2]CCC)[O]C(=O)CN=C(C)c2ccccc2[O]1", "TGI": "3.1 µM"}
{"compound": "CC(=O)c1cc2c(s1)C(=O)c1ccsc1C2=O", "TGI": "4.19 µM"}
{"compound": "CCCCCCCCCCCCNC(=O)N[C@H](C(=O)N[C@H]1/C=C/CCNC(=O)/C=C/[C@H](C)NC1=O)C(C)C", "TGI": "0.331 µM"}
{"compound": "CCOC(=O)NC(=O)c1cn(CCCCCCCCCCC(=O)NCCCN2CCN(CCCNC(=O)CCCCCCCCCCn3cc(C(=O)NC(=O)OCC)c(=O)[nH]c3=O)CC2)c(=O)[nH]c1=O", "TGI": "> 100 µM"}
